IC50: recorded values
system: SW620 cells (KRAS G12V); experiment: Cell-based pERK HTRF assay in SW620 cell (Biological Example 4); conditions: SW620 (KRAS G12V) cells, pERK HTRF
READOUT_KIND: IC50

COMPOUND: N#Cc1c(N)sc2c(F)ccc(-c3c(C(F)(F)F)cc4c(N5CCOCC5)nc(OC[C@@]56CCCN5C[C@H](F)C6)nc4c3F)c12 (single isomer, unassigned) [Compound 199]
READOUT_KIND: IC50
ENDPOINT_VALUE: > 1000 nM
//
COMPOUND: CCN(c1nc(OC[C@@]23CCCN2C[C@H](F)C3)nc2c(F)c(-c3ccc(F)c4sc(N)c(C#N)c34)c(C(F)(F)F)cc12)[C@H]1CCN(C(=O)C(C)C)C1 [Compound 332]
READOUT_KIND: IC50
ENDPOINT_VALUE: < 100 nM
//
COMPOUND: CCN(c1nc(OC[C@@]23CCCN2C[C@H](F)C3)nc2c(F)c(-c3ccc(F)c4sc(N)c(C#N)c34)c(C(F)(F)F)cc12)[C@H]1CCS(=O)(=O)C1 (atropisomer, axis not shown) [Compound 492]
READOUT_KIND: IC50
ENDPOINT_VALUE: < 100 nM
//
COMPOUND: CC(=O)N1CC[C@@H](N(C)c2nc(OC[C@@]34CCCN3C[C@H](F)C4)nc3c(F)c(-c4ccc(F)c5sc(N)c(C#N)c45)c(C(F)(F)F)cc23)[C@H]1C (single isomer, unassigned) [Compound 193]
READOUT_KIND: IC50
ENDPOINT_VALUE: < 100 nM
//
COMPOUND: N#Cc1c(N)sc2c(F)ccc(-c3c(C(F)(F)F)cc4c(N5CCN6C(=O)OCC6C5)nc(OCC56CCCN5CC(F)C6)nc4c3F)c12 (stereo not drawn) [Compound 431]
READOUT_KIND: IC50
ENDPOINT_VALUE: < 100 nM
//
COMPOUND: CCN(c1nc(OC[C@@]23CCCN2C[C@H](F)C3)nc2c(F)c(-c3ccc(F)c4sc(N)c(C#N)c34)c(C(F)(F)F)cc12)[C@H]1CCN(C(=O)C(C)C)C1 (atropisomer, axis not shown) [Compound 468]
READOUT_KIND: IC50
ENDPOINT_VALUE: > 1000 nM

====

pIC50: recorded values
target: Avi-KRAS G12R (1-169) GppNHp/RAF1 RBD-3xFLAG (52-151) (Homo sapiens, UniProt P01116, G12R); construct: Avi-KRAS G12R (1-169); assay: Raf1-KRAS G12R-GppNHP disruption HTRF assay (Biological Example 1); assay type: binding; conditions: KRAS G12R, GppNHp-loaded; class symbols
Sequence (P01116 1-169 isoform P01116-2 G12R): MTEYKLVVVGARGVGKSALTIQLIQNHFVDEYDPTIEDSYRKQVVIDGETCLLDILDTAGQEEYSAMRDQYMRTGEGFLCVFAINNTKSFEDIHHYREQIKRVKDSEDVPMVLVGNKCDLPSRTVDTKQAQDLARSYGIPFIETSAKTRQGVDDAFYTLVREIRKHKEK
pIC50: −log10 of the molar value.

COMPOUND: CCN(c1nc(OC[C@@]23CCCN2C[C@H](F)C3)nc2c(F)c(-c3ccc(F)c4sc(N)c(C#N)c34)c(C(F)(F)F)cc12)[C@@H]1CCN(C(=O)[C@H]2CCO2)[C@@H]1C (atropisomer, axis not shown)
pIC50: > 7.00
//
COMPOUND: CCN(c1nc(OC[C@@]23CCCN2C[C@H](F)C3)nc2c(F)c(-c3ccc(F)c4sc(N)c(C#N)c34)c(C(F)(F)F)cc12)[C@H]1C[C@H](C)N(C(=O)[C@H](C)OC)C1 (atropisomer, axis not shown)
pIC50: > 7.00
//
COMPOUND: CCN(c1nc(OC[C@@]23CCCN2C[C@H](F)C3)nc2c(F)c(-c3ccc(F)c4sc(N)c(C#N)c34)c(C(F)(F)F)cc12)[C@H]1C[C@H](C)N(C(=O)OC)C1 (atropisomer, axis not shown)
pIC50: > 7.00
//
COMPOUND: CCN(c1nc(OC[C@@]23CCCN2C[C@H](F)C3)nc2c(F)c(-c3ccc(F)c4sc(N)c(C#N)c34)c(C(F)(F)F)cc12)[C@H]1CC(=O)N(CC(F)F)C1 (atropisomer, axis not shown)
pIC50: 6.00 to 7.00
//
COMPOUND: CCN(c1nc(OC[C@]23CCCN2C[C@H](F)C3)nc2c(F)c(-c3ccc(F)c4sc(N)c(C#N)c34)c(C(F)(F)F)cc12)[C@H]1CCN(C(=O)C(C)C)C1
pIC50: > 7.00
//
COMPOUND: CCN(c1nc(OC[C@@]23CCCN2C[C@H](F)C3)nc2c(F)c(-c3ccc(F)c4sc(N)c(C#N)c34)c(C(F)(F)F)cc12)[C@H]1CCN(C(=O)OC2CC(F)C2)C1 (stereo partly drawn) [Compound 787]
pIC50: > 7.00
//
COMPOUND: Cc1c(C(=O)N2CCC2)nn2c1CN(c1nc(OCC34CCCN3CC(F)C4)nc3c(F)c(-c4ccc(F)c5sc(N)c(C#N)c45)c(C(F)(F)F)cc13)CC2 (stereo not drawn)
pIC50: 6.00 to 7.00
//
COMPOUND: CN(C)C(=O)N1CC[C@H]2[C@@H]1CN2c1nc(OC[C@@]23CCCN2C[C@H](F)C3)nc2c(F)c(-c3ccc(F)c4sc(N)c(C#N)c34)c(C(F)(F)F)cc12 (atropisomer, axis not shown)
pIC50: 5.00 to 6.00
//
COMPOUND: Cc1c(C(=O)N2CCCC2)nn2c1CN(c1nc(OCC34CCCN3CC(F)C4)nc3c(F)c(-c4ccc(F)c5sc(N)c(C#N)c45)c(C(F)(F)F)cc13)CC2 (stereo not drawn)
pIC50: 6.00 to 7.00
//
COMPOUND: CCN1CC[C@@H](N(CC)c2nc(OC[C@@]34CCCN3C[C@H](F)C4)nc3c(F)c(-c4ccc(F)c5sc(N)c(C#N)c45)c(C(F)(F)F)cc23)C1=O (atropisomer, axis not shown)
pIC50: 6.00 to 7.00
//
COMPOUND: CCN1C[C@@H]2C[C@H](N(CC)c3nc(OC[C@@]45CCCN4C[C@H](F)C5)nc4c(F)c(-c5ccc(F)c6sc(N)c(C#N)c56)c(C(F)(F)F)cc34)CN2C1=O (atropisomer, axis not shown)
pIC50: > 7.00
//
COMPOUND: CCN(c1nc(OC[C@@]23CCCN2C[C@H](F)C3)nc2c(F)c(-c3ccc(F)c4sc(N)c(C#N)c34)c(C(F)(F)F)cc12)[C@H]1C[C@@H](COC)N(C(=O)OC)C1 (atropisomer, axis not shown)
pIC50: 6.00 to 7.00

====

IC50: recorded values
target: Avi-KRAS G12R (1-169) GppNHp/RAF1 RBD-3xFLAG (52-151) (Homo sapiens, UniProt P01116, G12R); construct: Avi-KRAS G12R (1-169); experiment: Raf1-KRAS G12R-GppNHP disruption HTRF assay (Biological Example 1); type: binding; settings: KRAS G12R-GppNHp/RAF1 RBD HTRF

COMPOUND: Cc1nc(OC[C@@]23CCCN2C[C@H](F)C3)nc2c(F)c(-c3ccc(F)c4sc(N)c(C#N)c34)c(C(F)(F)F)cc12 [Compound 318]
IC50: 0.1 to 1 µM
//
COMPOUND: CCN(c1nc(OC[C@@]23CCCN2C[C@H](F)C3)nc2c(F)c(-c3ccc(F)c4sc(N)c(C#N)c34)c(C(F)(F)F)cc12)[C@@H]1CN(C(=O)C(C)C)C[C@@H]1F [Compound 475]
IC50: 0.1 to 1 µM
//
COMPOUND: CCN(c1nc(OC[C@@]23CCCN2C[C@H](F)C3)nc2c(F)c(-c3ccc(F)c4sc(N)c(C#N)c34)c(C(F)(F)F)cc12)[C@H]1CCN(C(=O)OC)C1 [Compound 394]
IC50: < 0.1 µM

====

target: Avi-KRAS G12V (1-169) GppNHp/RAF1 RBD-3xFLAG (52-151) (Homo sapiens, UniProt P01116, G12V); construct: Avi-KRAS G12V (1-169); experiment: Raf1-KRAS G12V-GppNHP disruption HTRF assay (Biological Example 1); assay type: binding; conditions: KRAS G12V, GppNHp-loaded; class symbols
Sequence (P01116 1-169 isoform P01116-2 G12V): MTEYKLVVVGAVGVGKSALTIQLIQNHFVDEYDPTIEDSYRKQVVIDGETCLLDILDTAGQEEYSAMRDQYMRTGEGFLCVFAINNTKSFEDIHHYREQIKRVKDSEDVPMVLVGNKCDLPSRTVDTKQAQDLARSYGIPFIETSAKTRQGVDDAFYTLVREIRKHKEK
pIC50: −log10 of the molar value.

MOLECULE: CCN(c1nc(OC[C@@]23CCCN2C[C@H](F)C3)nc2c(F)c(-c3ccc(F)c4sc(N)c(C#N)c34)c(C(F)(F)F)cc12)[C@H]1CCN(C(=O)OC2CCC2)C1 (atropisomer, axis not shown)
SYSTEM_NAME: Avi-KRAS G12V (1-169) GppNHp/RAF1 RBD-3xFLAG (52-151) (Homo sapiens, UniProt P01116, G12V)
pIC50: > 7.00

MOLECULE: CCN(c1nc(OC[C@@]23CCCN2C[C@H](F)C3)nc2c(F)c(-c3ccc(F)c4sc(N)c(C#N)c34)c(C(F)(F)F)cc12)[C@H]1C[C@@H](C)N(C(=O)N2CC(F)C2)C1 (atropisomer, axis not shown)
SYSTEM_NAME: Avi-KRAS G12V (1-169) GppNHp/RAF1 RBD-3xFLAG (52-151) (Homo sapiens, UniProt P01116, G12V)
pIC50: 6.00 to 7.00

MOLECULE: Cc1nnn2c1CN(c1nc(OC[C@@]34CCCN3C[C@H](F)C4)nc3c(F)c(-c4ccc(F)c5sc(N)c(C#N)c45)c(C(F)(F)F)cc13)[C@@H](C)C2 (atropisomer, axis not shown)
SYSTEM_NAME: Avi-KRAS G12V (1-169) GppNHp/RAF1 RBD-3xFLAG (52-151) (Homo sapiens, UniProt P01116, G12V)
pIC50: 6.00 to 7.00

MOLECULE: CCN(c1nc(OC[C@@]23CCCN2C[C@H](F)C3)nc2c(F)c(-c3ccc(F)c4sc(N)c(C#N)c34)c(C(F)(F)F)cc12)[C@H]1CCN(C(=O)[C@H]2CCCO2)C1 (atropisomer, axis not shown)
SYSTEM_NAME: Avi-KRAS G12V (1-169) GppNHp/RAF1 RBD-3xFLAG (52-151) (Homo sapiens, UniProt P01116, G12V)
pIC50: > 7.00

MOLECULE: CCN(c1nc(OC[C@@]23CCCN2C[C@H](F)C3)nc2c(F)c(-c3ccc(F)c4sc(N)c(C#N)c34)c(C(F)(F)F)cc12)[C@H]1C[C@H](COC)N(C(=O)OC)C1 (atropisomer, axis not shown)
SYSTEM_NAME: Avi-KRAS G12V (1-169) GppNHp/RAF1 RBD-3xFLAG (52-151) (Homo sapiens, UniProt P01116, G12V)
pIC50: > 7.00
